Sourced from patent US20040224958A1

# System Tested: cdk2/cyclinA (Homo sapiens, UniProt P24941)
# Experiment Summary: Cyclin-Dependent Kinase Assay cdk2/cyclinA
# Experimental Parameters: read-out: cdk2/A IC50; Table 1
Parameter: IC50. Scope: all listed entries.

Compound: O=c1ccc2cnc(Nc3ccc(N4CCCCC4)cc3)nc2n1C1CCCCCC1
IC50 [nM]: 66.8
//
Compound: O=c1ccc2cnc(Nc3ccc(SC(F)(F)F)cc3)nc2n1C1CC2CCC1C2 (stereo not shown)
IC50 [nM]: 370
//
Compound: CC1CN(c2ccc(Nc3ncc4ccc(=O)n(C5CC6CCC5C6)c4n3)cc2)CC(C)N1 (stereo not shown)
IC50 [nM]: 67.5
//
Compound: CN(C)CCCN1CCN(c2ccc(Nc3ncc4ccc(=O)n(C5CCCCC5)c4n3)cc2)CC1
IC50 [nM]: 102

###

# System Tested: cdk2/cyclinE (Homo sapiens, UniProt P24941)
# Experiment Summary: Cyclin-Dependent Kinase Assay cdk2/cyclinE
# Experimental Parameters: cdk2/E IC50
Property Label: IC50 (nM)

Item Smiles: COc1cc(Nc2ncc3ccc(=O)n(C(C)C)c3n2)cc(C(F)(F)F)c1
Readout Unit: nM
Number: 770

Item Smiles: CCn1c(=O)ccc2cnc(Nc3cc(OC)c(OC)c(OC)c3)nc21
Readout Unit: nM
Number: 1200

Item Smiles: CCCn1c(=O)ccc2cnc(Nc3ccc(S(N)(=O)=O)cc3)nc21
Readout Unit: nM
Number: 31.8

Item Smiles: O=c1ccc2cnc(Nc3ccc4[nH]nnc4c3)nc2n1C1CCCC1
Readout Unit: nM
Number: 8.5

###

# System Tested: cdk2/cyclinA (Homo sapiens)
# Experiment Summary: Cyclin-Dependent Kinase Assay cdk2/cyclinA
# Experimental Parameters: cdk2/A IC50
Property Label: IC50 (nM)

Compound: COc1ccc(Nc2ncc3ccc(=O)n(C4CCCCC4)c3n2)cc1OC
Readout Unit: nM
Number: 152
//
Compound: O=c1ccc2cnc(Nc3ccc4[nH]ccc4c3)nc2n1CC1CC1
Readout Unit: nM
Number: 320
//
Compound: Cc1cc(C)cc(Nc2ncc3ccc(=O)n(C4CCCC4)c3n2)c1
Readout Unit: nM
Number: 350
//
Compound: CCC(C)n1c(=O)ccc2cnc(Nc3ccc(OC)cc3)nc21 (stereo not drawn)
Readout Unit: nM
Number: 170
//
Compound: CCCn1c(=O)ccc2cnc(Nc3ccc4cn[nH]c4c3)nc21
Readout Unit: nM
Number: 83
//
Compound: CCCn1c(=O)ccc2cnc(Nc3ccc4[nH]nnc4c3)nc21
Readout Unit: nM
Number: 126
//
Compound: Cn1c(=O)ccc2cnc(Nc3ccc4[nH]ccc4c3)nc21
Readout Unit: nM
Number: 2000
//
Compound: CCC(CC)n1c(=O)ccc2cnc(Nc3cc(C)c(O)c(C)c3)nc21
Readout Unit: nM
Number: 160
//
Compound: CCC(CC)n1c(=O)ccc2cnc(Nc3cc(Cl)c(N)c(Cl)c3)nc21
Readout Unit: nM
Number: 220

###

# System Tested: cdk2/cyclinE (Homo sapiens, UniProt P24941)
# Experiment Summary: Cyclin-Dependent Kinase Assay cdk2/cyclinE
# Experimental Parameters: cdk2/E IC50
pIC50: −log10 of the molar value.
Label Satisfied when pIC50 >= 7; otherwise Not satisfied.

Compound: CCC(CC)n1c(=O)ccc2cnc(Nc3cccc([N+](=O)[O-])c3)nc21 [Example 498]
Group Label: Satisfied
//
Compound: CCC(CC)n1c(=O)ccc2cnc(Nc3cccc(C(F)(F)F)c3)nc21 [Example 487]
Group Label: Not satisfied
//
Compound: CCC(C)n1c(=O)ccc2cnc(Nc3cccc([N+](=O)[O-])c3)nc21 (centres unmarked) [Example 453]
Group Label: Satisfied
//
Compound: O=c1ccc2cnc(Nc3ccc4[nH]ccc4c3)nc2n1CC(F)(F)F [Example 593]
Group Label: Not satisfied

###

# System Tested: cdk2/cyclinA (Homo sapiens, UniProt P24941)
# Experiment Summary: Cyclin-Dependent Kinase Assay cdk2/cyclinA
# Experimental Parameters: Cdk2/A IC50, Table 3
pIC50: −log10 of the molar value.

Compound: CC(C)n1c(=O)ccc2cnc(Nc3cccc([N+](=O)[O-])c3)nc21 [Example 623]
pIC50: 6.53
//
Compound: CC(C)n1c(=O)ccc2cnc(Nc3ccc(O)cc3)nc21 [Example 624]
pIC50: 7.21
//
Compound: CCn1c(=O)ccc2cnc(Nc3ccc(F)cc3)nc21 [Example 88]
pIC50: 6.38
//
Compound: CCC(CC)n1c(=O)ccc2cnc(Nc3ccccc3)nc21 [R′=H, R″=H, R2=1-ethylpropyl]
pIC50: 6.90
//
Compound: COc1ccc(Nc2ncc3ccc(=O)n(C(C)C)c3n2)cc1 [Example 111]
pIC50: 6.92
//
Compound: Cn1c(=O)ccc2cnc(Nc3ccccc3)nc21 [Example 61]
pIC50: 5.94

###

# System Tested: cdc2/cyclinB (Homo sapiens)
# Sequence (P06493 whole entry): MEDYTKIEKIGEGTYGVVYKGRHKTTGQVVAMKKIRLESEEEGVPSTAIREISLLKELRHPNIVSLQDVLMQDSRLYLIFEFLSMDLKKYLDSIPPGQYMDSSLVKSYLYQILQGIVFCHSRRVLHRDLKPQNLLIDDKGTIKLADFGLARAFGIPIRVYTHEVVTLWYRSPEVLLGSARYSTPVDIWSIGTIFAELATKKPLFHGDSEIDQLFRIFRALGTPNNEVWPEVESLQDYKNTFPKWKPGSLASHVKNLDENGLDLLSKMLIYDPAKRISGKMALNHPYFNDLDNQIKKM
# Sequence (P14635 whole entry, further chain): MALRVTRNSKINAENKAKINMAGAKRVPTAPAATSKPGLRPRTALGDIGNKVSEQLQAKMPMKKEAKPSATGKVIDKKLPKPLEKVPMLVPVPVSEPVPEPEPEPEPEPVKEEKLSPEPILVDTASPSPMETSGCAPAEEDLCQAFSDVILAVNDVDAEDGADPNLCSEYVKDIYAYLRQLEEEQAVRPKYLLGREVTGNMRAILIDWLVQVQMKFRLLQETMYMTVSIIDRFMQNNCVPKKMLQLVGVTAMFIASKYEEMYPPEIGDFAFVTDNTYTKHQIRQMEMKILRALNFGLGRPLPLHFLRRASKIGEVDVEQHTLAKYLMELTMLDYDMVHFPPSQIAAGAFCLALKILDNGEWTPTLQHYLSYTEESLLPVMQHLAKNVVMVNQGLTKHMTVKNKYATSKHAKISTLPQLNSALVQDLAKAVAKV
# Experiment Summary: Cyclin-Dependent Kinase Assay cdc2/cyclinB
pIC50: −log10 of the molar value.

Molecule: CCC(CC)n1c(=O)ccc2cnc(Nc3cc(F)c(NC(C)=O)c(Cl)c3)nc21
pIC50: 5.70
--
Molecule: Cn1c(=O)ccc2cnc(Nc3ccccc3)nc21
pIC50: 6.06
--
Molecule: CCC(C)n1c(=O)ccc2cnc(Nc3ccc(OC)cc3)nc21 (stereo not shown)
pIC50: 7.01
--
Molecule: CCC(C)n1c(=O)ccc2cnc(Nc3ccc(N(C)C(C)=O)cc3)nc21 (stereo not shown)
pIC50: 6.47
--
Molecule: CCCn1c(=O)ccc2cnc(Nc3ccc(O)c(CN4CCOCC4)c3)nc21
pIC50: 6.30
--
Molecule: CC(=O)Nc1cc(Nc2ncc3ccc(=O)n(CC4CC4)c3n2)ccc1C
pIC50: 6.47
--
Molecule: CCn1c(=O)ccc2cnc(Nc3ccc4[nH]nnc4c3)nc21
pIC50: 6.46
--
Molecule: CCCn1c(=O)ccc2cnc(Nc3cc(OC)c(OC)c(OC)c3)nc21
pIC50: 5.89
--
Molecule: O=c1ccc2cnc(Nc3ccc(F)c([N+](=O)[O-])c3)nc2n1CC1CC1
pIC50: 6.19
--
Molecule: CCCn1c(=O)ccc2cnc(Nc3cc(F)c(F)c(F)c3)nc21
pIC50: 6.41
--
Molecule: CN1CCN(c2ccc(Nc3ncc4ccc(=O)n(C5CCCCC5)c4n3)cc2)CC1
pIC50: 7.11
--
Molecule: CC1CN(c2ccc(Nc3ncc4ccc(=O)n(C5CCCCC5)c4n3)cc2)CC(C)N1 (stereo not shown)
pIC50: 6.84
--
Molecule: CCCCn1c(=O)ccc2cnc(Nc3ccc(F)cc3)nc21
pIC50: 6.89
--
Molecule: NS(=O)(=O)c1ccc(Nc2ncc3ccc(=O)n(CC4CC4)c3n2)cc1
pIC50: 7.54
--
Molecule: CC(=O)N(C)c1ccc(Nc2ncc3ccc(=O)n(C(C)C)c3n2)cc1
pIC50: 6.27
--
Molecule: CCC(C)n1c(=O)ccc2cnc(Nc3ccc(C)c(C)c3)nc21 (stereo not shown)
pIC50: 6.77
--
Molecule: CCCn1c(=O)ccc2cnc(Nc3ccc(C)c(C)c3)nc21
pIC50: 6.67
--
Molecule: CC(=O)Nc1cc(Nc2ncc3ccc(=O)n(C(C)C)c3n2)ccc1C
pIC50: 5.85
--
Molecule: O=c1ccc2cnc(Nc3ccc4cn[nH]c4c3)nc2n1C1CCCC1
pIC50: 7.08

###

# System Tested: cdk2/cyclinA (Homo sapiens, UniProt P24941)
# Experiment Summary: Cyclin-Dependent Kinase Assay cdk2/cyclinA
# Experimental Parameters: cdk2/A IC50
Parameter: log10 IC50. Scope: all listed entries.
Property Label: log10 IC50 (log10 of the value in nM)

Molecule: CCC(C)n1c(=O)ccc2cnc(Nc3ccc(F)c(C(F)(F)F)c3)nc21 (stereo not drawn)
log10 IC50: 2.45
--
Molecule: CCC(CC)n1c(=O)ccc2cnc(Nc3cc(Cl)c(O)c(Cl)c3)nc21
log10 IC50: 2.20
--
Molecule: CCn1c(=O)ccc2cnc(Nc3cc(OC)cc(C(F)(F)F)c3)nc21
log10 IC50: 3.59
--
Molecule: CCC(CC)n1c(=O)ccc2cnc(Nc3ccc(O)c(C(=O)O)c3)nc21
log10 IC50: 2.81
--
Molecule: CC(C)n1c(=O)ccc2cnc(Nc3cccc(S(N)(=O)=O)c3)nc21
log10 IC50: 2.38
--
Molecule: O=C1CSc2ccc(Nc3ncc4ccc(=O)n(C5CCCC5)c4n3)cc2N1
log10 IC50: 1.20
--
Molecule: CCCn1c(=O)ccc2cnc(Nc3ccc4c(c3)CCN4)nc21
log10 IC50: 3.20
--
Molecule: CCCn1c(=O)ccc2cnc(Nc3cccc(NC(C)=O)c3)nc21
log10 IC50: 2.66
--
Molecule: CCn1c(=O)ccc2cnc(Nc3ccc(F)c(F)c3)nc21
log10 IC50: 2.92

###

# System Tested: Cdk5/p25 (Homo sapiens, UniProt Q00535)
# Experiment Summary: Cyclin-Dependent Kinase 5 High Throughput Screening (cdk5-HTS) Assay
# Type: biochemical
# Experimental Parameters: high throughput screen
pIC50: −log10 of the molar value.
Label fulfilled when pIC50 >= 7; otherwise not fulfilled.

Item Smiles: CC(C)n1c(=O)ccc2cnc(Nc3ccc(O)c(Cl)c3)nc21
System Tested: Cdk5/p25 (Homo sapiens, UniProt Q00535)
Group Label: fulfilled

Item Smiles: CCC(CC)n1c(=O)ccc2cnc(Nc3ccc(C)c(NC(C)=O)c3)nc21
System Tested: Cdk5/p25 (Homo sapiens, UniProt Q00535)
Group Label: not fulfilled

Item Smiles: CCCCn1c(=O)ccc2cnc(Nc3ccc4c(c3)CCCC4=O)nc21
System Tested: Cdk5/p25 (Homo sapiens, UniProt Q00535)
Group Label: fulfilled

Item Smiles: CCn1c(=O)ccc2cnc(Nc3ccc(NC(=O)OC(C)(C)C)cc3)nc21
System Tested: Cdk5/p25 (Homo sapiens, UniProt Q00535)
Group Label: not fulfilled

Item Smiles: CCCn1c(=O)ccc2cnc(Nc3cccc(I)c3)nc21
System Tested: Cdk5/p25 (Homo sapiens, UniProt Q00535)
Group Label: fulfilled

Item Smiles: CCCn1c(=O)ccc2cnc(Nc3cc(F)c(F)c(F)c3)nc21
System Tested: Cdk5/p25 (Homo sapiens, UniProt Q00535)
Group Label: not fulfilled

Item Smiles: COc1ccc(Nc2ncc3ccc(=O)n(C)c3n2)cc1OC
System Tested: Cdk5/p25 (Homo sapiens, UniProt Q00535)
Group Label: not fulfilled

Item Smiles: CCCn1c(=O)ccc2cnc(Nc3ccc4c(c3)NCC4)nc21
System Tested: Cdk5/p25 (Homo sapiens, UniProt Q00535)
Group Label: not fulfilled

Item Smiles: CCCCn1c(=O)ccc2cnc(Nc3ccc4[nH]ncc4c3)nc21
System Tested: Cdk5/p25 (Homo sapiens, UniProt Q00535)
Group Label: fulfilled

Item Smiles: CCC(CC)n1c(=O)ccc2cnc(Nc3ccc(OC)c(OC)c3)nc21
System Tested: Cdk5/p25 (Homo sapiens, UniProt Q00535)
Group Label: fulfilled

Item Smiles: O=c1ccc2cnc(Nc3cccc(C(F)(F)F)c3)nc2n1CC(F)(F)F
System Tested: Cdk5/p25 (Homo sapiens, UniProt Q00535)
Group Label: not fulfilled

Item Smiles: Cn1c(=O)ccc2cnc(Nc3ccc(NC(=O)OC(C)(C)C)cc3)nc21
System Tested: Cdk5/p25 (Homo sapiens, UniProt Q00535)
Group Label: not fulfilled
